System: beige adipocytes
Test: Lipolysis validation assays of primary hits at three concentrations
Assay type: cell-based, human
Conditions: Homo sapiens, Adipocyte, 24 h; Conc. 6.7 µM; read-out: % of Control (4)
Counter-ions that a name gives are not always drawn.
Known activity at 6.7 µM of a selection of molecules
I'd appreciate it if you included the unit after the number.

>>> assay_value("C[C@@H]1CC(=O)NN=C1c1ccc(NN=C(C#N)C#N)cc1")
"246%"
>>> assay_value("CC(C)NCC(O)c1ccc(O)c(O)c1 (stereo not shown) [Isoproterenol HCl]")
"236%"

// lookup activity at 6.7 µM for Cc1[nH]c(=O)c(C#N)cc1-c1ccncc1
142%

* * *

Test system: beige adipocytes
Test: Lipolysis validation assays of primary hits at three concentrations
Type: cell-based, human
Set-up: unit of the concentration uncertain
Details: Conc. 6.7 (unit uncertain)
measurement-name: % of Control (3)

Consider the following illustrative entries.
>>> assay_value("CC1(C)C(=O)N(CCN2CCC(C(=O)c3ccc(F)cc3)CC2)c2ccccc21")
"222.09 % of Control"
>>> assay_value("COc1ccc(-c2cc3c(C)nc(N)nc3n([C@H]3CC[C@H](OCCO)CC3)c2=O)cn1")
"225.05 % of Control"
>>> assay_value("CO[C@H]1CC[C@@H](O[C@H]2C[C@H]([C@]3(C)CC[C@]4(C[C@H](O)[C@@H](C)[C@@H]([C@@H](C)/C=C(\\C)C(=O)[C@H](C)C[C@H](C)C(=O)O)O4)O3)O[C@]3(O[C@@H]([C@H]4O[C@@](O)(CO)[C@H](C)C[C@@H]4C)C[C@@H]3C)[C@@H]2C)O[C@@H]1C")
"147.69 % of Control"
>>> assay_value("Cc1ccccc1N1CCN(S(=O)(=O)C[C@]23CC[C@H](C[C@@H]2NC(=O)[C@@H](N)CCS(C)(=O)=O)C3(C)C)CC1")
"130.11 % of Control"

# input for lookup
Checklist item: % of Control (3) tested on beige adipocytes, entry Cc1ccc([N+](=O)[O-])cc1S(=O)(=O)N(C)/N=C/c1cnc2ccc(Br)cn12 , value?
165.05 % of Control

* * *

System: beige adipocytes
Experiment: Lipolysis validation assays of primary hits at three concentrations
Format: cell-based, human
Conditions: Homo sapiens, Adipocyte, 24 h; Conc. 20 µM; read-out: % of Control (4)
Where a name gives a salt, the structure may show the parent alone.
Labelling: activity at 20 µM reported below 200% becomes criterion met; at or above becomes criterion not met.

These recorded examples may help you get a feel for the data.
>>> classification("CNC[C@H](O)c1cccc(O)c1 [Phenylephrine HCl]")
"criterion not met"
>>> classification("O=C1CN2Cc3c(ccc(Cl)c3Cl)N=C2N1 [Anagrelide HCl]")
"criterion met"
>>> classification("C[C@@H]1CC(=O)NN=C1c1ccc(NN=C(C#N)C#N)cc1")
"criterion not met"

Strictly below 200%: is that where activity at 20 µM of CC(Oc1c(Cl)cccc1Cl)C1=NCCN1 (stereo not shown) [Lofexidine HCl] sits?
criterion met

Strictly below 200%: is that where activity at 20 µM of CC(=O)Nc1ccccc1 [Acetanilide] sits?
criterion not met

Strictly below 200%: is that where activity at 20 µM of CCC(NC(C)C)C(O)c1ccc(O)c(O)c1 (stereo not shown) [Isoetharine Mesylate] sits?
criterion not met

Strictly below 200%: is that where activity at 20 µM of CCOC(=O)C1=C(C)NC(C)=C(C(=O)OC)C1c1cccc(Cl)c1Cl (stereo not shown) sits?
criterion not met

Strictly below 200%: is that where activity at 20 µM of Cc1cc(C)c(/C=C2\C(=O)Nc3ccccc32)[nH]1 sits?
criterion not met

Strictly below 200%: is that where activity at 20 µM of CC[C@@H]1C(=O)OC[C@@H]1Cc1cncn1C [Pilocarpine nitrate] sits?
criterion met

Strictly below 200%: is that where activity at 20 µM of COc1cc2c(cc1OC)-c1c/c(=N\c3c(C)cc(C)cc3C)n(C)c(=O)n1CC2 [Trequinsin HCl] sits?
criterion not met

Strictly below 200%: is that where activity at 20 µM of CCc1cnn2c(NCc3ccc[n+]([O-])c3)cc(N3CCCC[C@H]3CCO)nc12 sits?
criterion not met

Strictly below 200%: is that where activity at 20 µM of O=C(Nc1c[nH]nc1-c1nc2ccc(CN3CCOCC3)cc2[nH]1)NC1CC1 sits?
criterion met

Strictly below 200%: is that where activity at 20 µM of CC(C)C[C@H](NC(=O)CNC(=O)c1cc(Cl)ccc1Cl)B1OC(=O)C(CC(=O)O)(CC(=O)O)O1 sits?
criterion met

Strictly below 200%: is that where activity at 20 µM of C=C[C@@]1(C)CC(=O)[C@]2(O)[C@@]3(C)[C@@H](O)CCC(C)(C)[C@@H]3[C@H](O)[C@H](OC(C)=O)[C@@]2(C)O1 sits?
criterion not met

Strictly below 200%: is that where activity at 20 µM of C[n+]1cc2c3c(ccc2c2ccc4cc5c(cc4c21)OCO5)OCO3 sits?
criterion met

Strictly below 200%: is that where activity at 20 µM of CC(C)NCC(O)c1cc(O)cc(O)c1 (stereo not shown) [Metaproterenol Sulfate] sits?
criterion not met

Strictly below 200%: is that where activity at 20 µM of CC(C)NCC(O)c1ccc(O)c(O)c1 (stereo not shown) [Isoproterenol HCl] sits?
criterion not met

Strictly below 200%: is that where activity at 20 µM of Cc1[nH]c(=O)c(C#N)cc1-c1ccncc1 sits?
criterion met
